Measured values drawn from PubChem BioAssay (NCI) for this set.

- Test system: SNB-75 CNS
- assay-procedure: NCI-60 one-dose screen, 48 h (100 = growth as untreated, 0 = no growth, -100 = all killed)
- particulars: 10 µM unless noted
This is part of a sample that, as a whole, favours compounds with a hit. Of some 83,000 tested, about 20% had one in any assay.
Label scheme for growth: band 1: < 70%; band 2: ≥ 70% and < 90%; band 3: ≥ 90%

Check out these entries, answers already filled in.
molecule: O=C=Nc1ccc(Br)cc1
class-name: band 3
--
molecule: CCC(=O)C(CC(C)N1CCCCCC1)(c1ccccc1)c1ccccc1 (stereo unspecified)
class-name: band 3
--
molecule: Nc1ccc2c(c1)Cc1cc(N)ccc1-2
class-name: band 2
--
molecule: O=C(NC1=NCC[Se]1)c1ccccc1O
class-name: band 1
--
molecule: Cc1ccccc1-n1c(/C=C\c2ccccn2)nc2ccccc2c1=O
class-name: band 1
--
molecule: [N-]=[N+]=CC(=O)CCC(=O)C=[N+]=[N-]
class-name: band 3

Ask: Using the reported growth, which band applies to CCCCS(=O)(=O)Cl ?
Reply: band 3

Ask: Category lookup for the molecule CCC(Br)(CC)C(=O)NC(N)=O
Reply: band 2

Ask: Would you mind sorting CC12CCC3C(CCC4CC(O)CCC43C)C1CCC2=O (stereo unspecified) into the appropriate category?
Reply: band 3

Ask: Band for the recorded growth of O=[N+]([O-])c1ccc(OCc2ccc(S(=O)(=O)F)c(Cl)c2)c(Cl)c1 ?
Reply: band 3

Ask: // bin(item) where item = CC[C@H](C)[C@H](NC(=O)[C@H]1CCCCN1C)C(=O)N(C)[C@H](C[C@@H](OC(C)=O)c1cccc(C(=O)N[C@@H](Cc2ccccc2)C[C@H](C)C(=O)OC)n1)C(C)C
Reply: band 1

Ask: Assign a bin to CCCn1cc2c3c(cccc31)[C@H]1C[C@@H](C)CN(C)[C@@H]1C2
Reply: band 1

Ask: Band for the recorded growth of NC(N)=NC(N)=Nc1ccc(Cl)cc1 ?
Reply: band 2

Ask: Which category fits this record: C[C@@H]1C/C=C\C(=O)O[C@H](/C=C/C#C/C=C/C(C)(C)[C@@H](O)c2cccc(O)c2Br)[C@@H](C)/C=C/[C@H](C)C[C@H](OC(N)=O)C1
Reply: band 1

Ask: Quick check: band for O=C(O)CNCP(=O)(O)O
Reply: band 3

Ask: Category of Cc1ccc(S(=O)(=O)n2cc([C@@]3(O)C[C@H](CSC#N)OC3=O)c3ccccc32)cc1 :
Reply: band 1

Ask: Classify this molecule: CC(C)COC(=O)Cc1ccccc1
Reply: band 3

Ask: Classify this molecule: CO[C@H]1[C@H](O[C@@H]2C[C@@H]3C/C=C/C(=O)O[C@@H](CO)C[C@H](O)[C@@H]4C[C@H](C)[C@H](C/C=C\C=C\[C@H](C)C[C@H](C2)O3)O4)O[C@@H](C)[C@H](O)[C@H]1O
Reply: band 1

Ask: Please indicate the class for CCCC[C@H]1C(=O)O[C@H](C)[C@H](NC(=O)c2cccc(NC=O)c2O)C(=O)O[C@@H](C)[C@@H]1OC(=O)CC(C)C based on its growth.
Reply: band 1
